Just for reference, ChEMBL document CHEMBL1201862 is where these values come from.

# Test system: SK-OV-3
# testName: NCI tumour cell line growth inhibition, 48 h
Activity calls are given as the source filed them. Cut-off read from the data, not from the text of the source: active = GI50 up to about 1.1 µM and inactive = higher.
Pick one: active, inactive

Lab log entry: CCC(NC(C)c1ccccc1)C(O)c1ccc(OCc2ccccc2)c(OCc2ccccc2)c1 (stereo not given) — outcome as called in the assay?
inactive

Lab log entry: CC(C)[C@@H]1CC[C@@H](C)C[C@H]1OC(=O)/C=C1/C2C=CC(O2)C1C(=O)O[C@@H]1C[C@H](C)CC[C@H]1C(C)C (stereo not given in full) — outcome as called in the assay?
inactive

Lab log entry: `COc1cc(OC)cc(C(=O)CC(=O)c2cc(OC)cc(OC)c2)c1` — outcome as called in the assay?
inactive

Lab log entry: CC[C@@]1(O)C(=O)OCc2c1cc1n(c2=O)Cc2c-1nc1ccccc1c2/C=N\NC(=O)C(N)Cc1c[nH]c2ccccc12 (stereo not given in full) — outcome as called in the assay?
active

Lab log entry: `CCOC(=O)/C(O)=C(/c1n[nH]c(=O)c2ccccc12)[N+](=O)[O-]` — outcome as called in the assay?
inactive

Lab log entry: Cc1ccc(-c2c3nc(c(-c4ccc(C)cc4)c4ccc([nH]4)c(-c4ccc(OCC5COC(C)(C)O5)cc4)c4nc(c(-c5ccc(C)cc5)c5ccc2[nH]5)C=C4)C=C3)cc1 (stereo not given) — outcome as called in the assay?
inactive

Lab log entry: `COc1cc(/C=C/c2cc(=O)cc(/C=C/c3ccc(O)c(OC)c3)o2)ccc1O` — outcome as called in the assay?
inactive

Lab log entry: `CCCCc1ccc(Nc2nc(N)c3ncn(COCCO)c3n2)cc1` — outcome as called in the assay?
inactive

Lab log entry: `Cc1cccc(C(=O)c2cccc3ccccc23)c1C(=O)O` — outcome as called in the assay?
inactive

Lab log entry: C=C(C)C(CC=C(C)C)CC12CC(CC=C(C)C)C(C)(C)C(CC=C(C)C)(C(=O)C(Cc3ccc(O)c(O)c3)=C1O)C2=O (stereo not given) — outcome as called in the assay?
inactive
